experiment: Ratio of drug level in blood to plasma in ICR mouse at 10 mg/kg, po after 4 hrs; assay type: ADME, organism-based; conditions: blood and plasma
measurement kind: blood plasma ratio at 4 h
Answers are plain numbers.

Find the recorded blood plasma ratio at 4 h belonging to Clc1ccc(C[C@@]2(COc3cccnc3)CCCNC2)cc1Cl and report it. 5.1

====

In what follows, each item is paired with its pKi for Acetylcholine-binding protein (Lymnaea stagnalis, UniProt P58154).
Answers are plain numbers, as −log10 of the molar value.

Below, each entry is followed by its recorded pKi result.
Clc1cccc(CC2(COc3cncc(Br)c3)CCCNC2)c1 (stereo unspecified) : 7.65
Clc1ccccc1CC1(COc2cccnc2)CCCNC1 (stereo unspecified) : 7.89
c1ccc(-c2ccc(CC3(COc4cccnc4)CCCNC3)cc2)cc1 (stereo unspecified) : 7.93
Clc1cccc(CC2(COc3cccnc3)CCCNC2)c1Cl (stereo unspecified) : 8.22

Next:
Find the recorded pKi belonging to OCCC#Cc1ccc(OCC2(Cc3cccc(Cl)c3)CCCNC2)cn1 (stereo unspecified) and report it. 7.54
